All figures here come from patent US11878975B2.

Target: human TLR8 (Homo sapiens)
Sequence (Q9NR97 27-1041): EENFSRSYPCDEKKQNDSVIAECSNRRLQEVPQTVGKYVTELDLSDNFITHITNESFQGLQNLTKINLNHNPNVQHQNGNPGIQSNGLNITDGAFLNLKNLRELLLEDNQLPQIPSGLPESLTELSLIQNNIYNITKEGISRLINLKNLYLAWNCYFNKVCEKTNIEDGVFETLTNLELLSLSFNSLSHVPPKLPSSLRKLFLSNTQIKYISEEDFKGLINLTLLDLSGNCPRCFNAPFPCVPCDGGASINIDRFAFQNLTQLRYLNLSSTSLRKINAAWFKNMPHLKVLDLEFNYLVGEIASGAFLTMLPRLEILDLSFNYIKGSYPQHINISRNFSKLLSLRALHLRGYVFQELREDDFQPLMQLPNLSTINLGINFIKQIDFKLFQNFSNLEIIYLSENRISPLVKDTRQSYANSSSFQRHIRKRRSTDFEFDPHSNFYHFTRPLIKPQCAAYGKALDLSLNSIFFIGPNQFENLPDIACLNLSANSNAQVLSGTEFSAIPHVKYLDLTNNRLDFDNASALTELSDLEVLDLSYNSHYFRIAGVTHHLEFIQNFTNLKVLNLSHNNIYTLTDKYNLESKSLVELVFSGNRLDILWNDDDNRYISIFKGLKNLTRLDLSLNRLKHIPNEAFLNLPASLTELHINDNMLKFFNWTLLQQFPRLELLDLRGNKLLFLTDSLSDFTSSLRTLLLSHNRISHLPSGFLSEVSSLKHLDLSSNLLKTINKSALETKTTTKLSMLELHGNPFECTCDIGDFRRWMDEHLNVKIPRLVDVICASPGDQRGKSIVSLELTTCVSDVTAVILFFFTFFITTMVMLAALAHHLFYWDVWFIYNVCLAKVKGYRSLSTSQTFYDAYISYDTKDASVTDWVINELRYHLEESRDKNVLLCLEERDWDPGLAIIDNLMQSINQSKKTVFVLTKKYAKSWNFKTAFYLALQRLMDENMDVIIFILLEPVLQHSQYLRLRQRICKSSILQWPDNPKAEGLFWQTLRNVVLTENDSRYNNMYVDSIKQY
Assay: TLR8 inhibition reporter assay (HEK-Blue cells, SEAP reporter, R848 stimulation)
Conditions: HEK-Blue cells overexpressing human TLR8, SEAP reporter, R848 15.9 μM
From the text: TLR7/8/9 Inhibition Reporter Assays HEK-Blue™-cells (Invivogen) overexpressing human TLR7, TLR8 or TLR9 receptors were used for screening inhibitors of these receptors using an inducible SEAP (secreted embryonic alkaline phosphatase) reporter gene under the control of the IFN-β minimal promoter fused to five NF-κB and AP-1-binding sites. […]
measurement label: IC50 (µM)
# number only, unit µM dropped from output

Worked cases, answers included:
{"columns": ["compound", "IC50 / µM"],
 "data": [
  ["CNC(=O)CNC1CCC(c2ccc3[nH]c(-c4cc(C)c5ncnn5c4)c(C(C)C)c3c2)CC1 (single isomer, unassigned) [Example 162]", 0.0012],
  ["COc1cc(-c2[nH]c3ccc(C4CCC(N(C)CC(F)F)CC4)cc3c2C(C)C)cn2ncnc12 (centres unmarked) [Example 81]", 0.104],
  ["COc1cc(-c2[nH]c3ccc(C4CCC(N5CC6(COC6)C5)CC4)cc3c2C(C)C)cn2ncnc12 (centres unmarked) [Example 73]", 0.00058],
  ["Cc1c(-c2[nH]c3ccc(C4CN(C5CCOC5)C4)cc3c2C(C)C)cn2cnnc2c1C (centres unmarked)", 0.045],
  ["Cc1cc(-c2[nH]c3ccc(C4CN(CC(N)=O)CCO4)cc3c2C(C)C)cn2ncnc12 (centres unmarked)", 0.048]
]}

-- ask # IC50 lookup, item `COc1cc(-c2[nH]c3ccc(CC4CN(CC#N)C4)cc3c2C(C)C)cn2ncnc12`
-- reply 0.049

-- ask How about this compound: Cc1c(-c2[nH]c3ccc(C4CC5CN(C(C)C)CC5C4)cc3c2C(C)C)cn2cnnc2c1C (centres unmarked)
-- reply 0.027

-- ask How about this compound: COc1cc(-c2[nH]c3ccc(C4CCCN(C5COC5)C4)cc3c2C(C)C)cn2ncnc12 (centres unmarked) [Example 240]
-- reply 0.0042

====

target: human TLR7 (Homo sapiens); experiment: TLR7 inhibition reporter assay (HEK-Blue cells, SEAP reporter, gardiquimod stimulation); conditions: HEK-Blue cells overexpressing human TLR7, SEAP reporter, gardiquimod 7.5 μM
Below, each entry is listed with its recorded IC50.
# number only, unit nM dropped from output

{"columns": ["molecule", "units text", "numeric value"],
 "data": [
  ["Cc1c(-c2[nH]c3ccc(C4CCC(NC5(C)COC5)CC4)cc3c2C(C)C)cn2ncnc2c1C (stereo not shown) [Example 48]", "nM", 0.55],
  ["Cc1cc(-c2[nH]c3ccc(C4CN(CC(N)=O)CCO4)cc3c2C(C)C)cc(C)n1 (stereo not shown) [Example 327]", "nM", 54],
  ["COc1cc(-c2[nH]c3ccc(C4CN(C(=O)CN5CCS(=O)(=O)CC5)CCO4)cc3c2C(C)C)cn2ncnc12 (stereo not shown) [Example 360]", "nM", 11]
]}

-- ask # IC50 lookup, item COc1cc(-c2[nH]c3ccc(C4CCC(N5CC[C@@H](N(C)C)C5)CC4)cc3c2C(C)C)cn2ncnc12 (stereo partly shown) [Example 28]
-- reply 0.17

-- ask How about this molecule: COc1cc(-c2[nH]c3ccc(C4CCC(C)(NC(=O)CN(C)C)CC4)cc3c2C(C)C)cn2ncnc12 (stereo not shown) [Example 154]
-- reply 4

-- ask How about this molecule: Cc1c(-c2[nH]c3ccc(C4CN(CC(N)=O)CCO4)cc3c2C(C)C)cn2ncnc2c1C (stereo not shown) [Example 320]
-- reply 16

-- ask How about this molecule: Cc1c(-c2[nH]c3ccc(C4CN(C5CCOCC5)C4)cc3c2C(C)C)cn(C)c(=O)c1C [Example 481]
-- reply 109

====

Below, each entry is listed with its recorded log10 IC50.
Biological target: human TLR7 (Homo sapiens)
Sequence (Q9NYK1 27-1049): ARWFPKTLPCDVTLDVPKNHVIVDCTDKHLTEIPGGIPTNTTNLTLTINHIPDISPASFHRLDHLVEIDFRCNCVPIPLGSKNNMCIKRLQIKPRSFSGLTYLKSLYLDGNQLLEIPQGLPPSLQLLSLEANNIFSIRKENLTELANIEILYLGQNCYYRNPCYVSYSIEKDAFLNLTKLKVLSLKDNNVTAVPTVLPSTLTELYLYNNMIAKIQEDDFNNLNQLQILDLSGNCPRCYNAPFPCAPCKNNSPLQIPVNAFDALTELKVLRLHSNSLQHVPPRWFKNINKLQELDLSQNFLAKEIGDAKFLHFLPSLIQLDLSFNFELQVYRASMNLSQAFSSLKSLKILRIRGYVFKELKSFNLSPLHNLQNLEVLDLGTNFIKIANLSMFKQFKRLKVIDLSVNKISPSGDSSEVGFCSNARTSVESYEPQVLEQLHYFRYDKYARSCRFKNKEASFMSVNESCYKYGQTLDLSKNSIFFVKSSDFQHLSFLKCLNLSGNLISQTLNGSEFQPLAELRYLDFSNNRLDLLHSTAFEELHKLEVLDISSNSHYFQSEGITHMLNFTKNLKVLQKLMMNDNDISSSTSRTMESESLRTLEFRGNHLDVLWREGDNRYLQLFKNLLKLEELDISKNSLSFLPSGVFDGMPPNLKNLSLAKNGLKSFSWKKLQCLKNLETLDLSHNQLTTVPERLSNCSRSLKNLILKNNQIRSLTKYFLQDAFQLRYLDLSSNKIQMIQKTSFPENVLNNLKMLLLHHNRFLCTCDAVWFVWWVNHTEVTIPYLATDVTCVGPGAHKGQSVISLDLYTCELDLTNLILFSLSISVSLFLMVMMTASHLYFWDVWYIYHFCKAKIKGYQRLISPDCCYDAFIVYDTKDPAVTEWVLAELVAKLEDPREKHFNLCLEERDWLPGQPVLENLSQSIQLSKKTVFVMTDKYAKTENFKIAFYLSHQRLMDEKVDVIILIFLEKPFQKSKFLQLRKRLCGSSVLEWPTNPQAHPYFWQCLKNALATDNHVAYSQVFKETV
Assay: TLR7 inhibition reporter assay (HEK-Blue cells, SEAP reporter, gardiquimod stimulation)
Conditions: HEK-Blue cells overexpressing human TLR7, SEAP reporter, gardiquimod 7.5 μM
// stored as log10 of IC50 expressed in nM

{"columns": ["compound", "measurement label", "numeric value"],
 "data": [
  ["COc1cc(-c2[nH]c3ccc(C4CCCNC4)cc3c2C(C)C)cn2ncnc12 (single isomer, unassigned) [Example 183]", "log10 IC50", 0.30],
  ["Cc1cc(-c2[nH]c3ccc(CCN4CCCC(F)(F)C4)cc3c2C(C)C)cn(C)c1=O [Example 404]", "log10 IC50", 1.70],
  ["CNC(=O)CN1CCOC(c2ccc3[nH]c(-c4cc(OC)c5ncnn5c4)c(C(C)C)c3c2)C1 (centres unmarked) [Example 315]", "log10 IC50", 0.95],
  ["Cc1c(-c2[nH]c3ccc(C4CCC(N(C)C)CC4)cc3c2C(C)C)cn2cnnc2c1C (centres unmarked) [Example 527]", "log10 IC50", -0.28],
  ["Cc1cc(-c2[nH]c3ccc(C4CCCN(C(=O)[C@@H]5CCN5)C4)cc3c2C(C)C)cc(C)n1 (some centres unmarked) [Example 218]", "log10 IC50", 1.18]
]}

-- ask # log10 IC50 lookup, item COc1cc(-c2[nH]c3ccc(C4CN(C(=O)CN(C)C)C(C)(C)CO4)cc3c2C(C)C)cn2ncnc12 (centres unmarked) [Example 374]
-- reply 1.30

-- ask How about this compound: COc1cc(-c2[nH]c3ccc(CCN4CCCC4)cc3c2C(C)C)cn2ncnc12 [Example 414]
-- reply 0.48

-- ask How about this compound: Cc1cc(-c2[nH]c3ccc(C4CCC(N5CCOCC5)CC4)cc3c2C(C)C)cc(C)n1 (centres unmarked) [Example 54]
-- reply 0.30

====

molecular target: human TLR8 (Homo sapiens); construct: host or cells: HEK-Blue cells; assay: TLR8 inhibition reporter assay (HEK-Blue cells, SEAP reporter, R848 stimulation); assay type: cell-based; conditions: HEK-Blue cells overexpressing human TLR8, SEAP reporter, R848 15.9 μM
Below, each entry is listed with its recorded pIC50.
Please note pIC50 is a logarithmic value: minus log10 of concentration in mol/L. Answer with that number alone.

Worked cases, answers included:
{"columns": ["compound", "pIC50"],
 "data": [
  ["Cc1cc(-c2[nH]c3ccc(C4CN(C(C)C)CCO4)cc3c2C(C)C)cc(C)n1 (centres unmarked) [Example 303]", 7.92],
  ["COc1cc(-c2[nH]c3ccc(C4CCCN(C(=O)CN(C)C)C4)cc3c2C(C)C)cn2ncnc12 (centres unmarked) [Example 192]", 8.23],
  ["COc1cc(-c2[nH]c3ccc(C4CCC(N5CC(F)C5)CC4)cc3c2C(C)C)cn2ncnc12 (centres unmarked) [Example 23]", 8.04],
  ["CNCC(=O)N1CCOC(c2ccc3[nH]c(-c4cc(OC)c5ncnn5c4)c(C(C)C)c3c2)C1 (centres unmarked) [Example 339]", 8.22],
  ["Cc1cc(-c2[nH]c3ccc([C@H]4C[C@H]4C(=O)N4CC5CNCC5C4)cc3c2C(C)C)ccn1 (some centres unmarked) [Example 455]", 7.80],
  ["Cc1cc(-c2[nH]c3ccc(C4CCC(NC5CC5)CC4)cc3c2C(C)C)cn2ncnc12 (single isomer, unassigned) [Example 16]", 9.33],
  ["COc1cc(-c2[nH]c3ccc(CCN4CCCCC4)cc3c2C(C)C)cn2ncnc12 [Example 412]", 8.54],
  ["Cc1cc(-c2[nH]c3ccc(C4CN(C5COC5)CCO4)cc3c2C(C)C)cn2ncnc12 (centres unmarked) [Example 290]", 6.75]
]}

-- ask Please tell me: pIC50 of COc1cc(-c2[nH]c3ccc(C4CCC(NC(=O)CN5CCOCC5)CC4)cc3c2C(C)C)cn2ncnc12 (centres unmarked) [Example 142] , system human TLR8 (Homo sapiens)?
-- reply 7.85

-- ask How about this compound: CCc1c(-c2ccnc(C)c2)[nH]c2ccc(CNC(=O)CCN(C)C)cc12 [Example 395]
-- reply 6.74

-- ask How about this compound: COc1cc(-c2[nH]c3ccc(C4CCC(N(C)C(C)C)CC4)cc3c2C(C)C)cn2ncnc12 (single isomer, unassigned) [Example 6]
-- reply 9.00
